Reference source: patent US12428403B2

# STUDY_TARGET: SSTR4 (Homo sapiens)
# Sequence (P31391 whole entry): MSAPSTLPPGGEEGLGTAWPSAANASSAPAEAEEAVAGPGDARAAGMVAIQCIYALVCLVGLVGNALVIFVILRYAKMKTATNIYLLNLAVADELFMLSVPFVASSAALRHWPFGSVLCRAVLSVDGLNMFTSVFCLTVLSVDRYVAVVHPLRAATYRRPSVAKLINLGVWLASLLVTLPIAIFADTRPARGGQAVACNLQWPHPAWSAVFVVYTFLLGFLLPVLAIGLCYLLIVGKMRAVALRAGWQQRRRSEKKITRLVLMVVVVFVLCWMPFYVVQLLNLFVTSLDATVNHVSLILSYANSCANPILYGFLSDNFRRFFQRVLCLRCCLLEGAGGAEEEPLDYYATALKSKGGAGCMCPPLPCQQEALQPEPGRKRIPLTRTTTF
# ASSAY_NAME: cell-based
pEC50: −log10 of the molar value.
// map pEC50 to label using bucket 1: < 7; bucket 2: ≥ 7 and < 8; bucket 3: ≥ 8

Tag the class for CN1CCCC1CNc1nccnc1Cc1ccc(F)cc1 (centres unmarked)
bucket 1

Tag the class for Cc1nnc([C@H](C)c2ccccc2)c(NCCN2CCC2)n1 (single isomer, unassigned)
bucket 2

Tag the class for Cc1nc(NCCN2CCCC2)c(C(C)c2ccc(F)cc2)nc1C(=O)N1CC[C@H](F)C1 (some centres unmarked)
bucket 3

Tag the class for "Cc1cccc(Cc2nc(C(=O)N(C)C)c(C)nc2NCCN2CCCC2)c1"
bucket 3

Tag the class for "C[C@H](c1ccc(F)cc1)c1nc(C(=O)N2CCCC2)cnc1NCCN1CCCC1"
bucket 2

Tag the class for CO[C@H]1C[C@H](NC(=O)c2nc(C(C)c3ccc(F)cc3)c(NCCN3CCCC3)nc2C)C1 (some centres unmarked)
bucket 3

----------
In what follows, each item is paired with its pIC50 for SSTR1 (Homo sapiens, UniProt P30872).
Kindly note that pIC50 refers to -log10 of the concentration in mol/L and answer with the value alone.

# example entries with known answers
Quick check: pIC50 of "CNC(=O)c1nc(Cc2cccc(C)c2)c(NCCN2CCCC2)nc1C" ?
5.05

Quick check: pIC50 of CCN(C)C(=O)c1nc(C(C)c2ccc(F)cc2)c(NCCN2CCCC2)nc1C (centres unmarked) ?
5.27

---
Quick check: pIC50 of "C[C@H](c1ccc(F)cc1)c1nc(C(=O)N2CCCC2)cnc1NCCN1CCCC1" ?
5.71

Quick check: pIC50 of CNC(=O)c1cnc(NCCN2CCCC2)c(C(C)c2ccc(F)cc2)n1 (centres unmarked) ?
4.98

Quick check: pIC50 of "Cc1cccc(Cc2nc(C(=O)N(C)C)c(C)nc2NCCN2CCCC2)c1" ?
4.57

Quick check: pIC50 of Cc1cnc(-c2cnc(NCCN3CCCC3)c(C(C)c3ccc(F)cc3)n2)o1 (centres unmarked) ?
5.58

----------
# STUDY_TARGET: SSTR4 (Homo sapiens)
# ASSAY_NAME: SSTR4 I-125 somatostatin competition binding assay (CHO-K1 membranes)
# Set-up: host or cells: CHO-K1
# COND: competition with I-125 labeled somatostatin, membranes from CHO-K1 overexpressing SSTR4; read-out: SSTR4 Binding pIC50 (converted)
Readings of IC50 for the listed compounds
Express your answer in nM, writing the number without its unit.

# example entries with known answers
Lab note: need IC50 for "Cc1cccc(Cc2ncc(C(C)C)nc2NCCN2CCC2)c1" on SSTR4 (Homo sapiens), anyone have it?
10.5

Lab note: need IC50 for CNC(=O)c1nc(Cc2ccc(F)cc2)c(NCCN2CCCC2)nc1C [Example 44] on SSTR4 (Homo sapiens), anyone have it?
67.6

Lab note: need IC50 for CC(c1ccc(F)cc1)c1nc(-c2ncco2)cnc1NCCN1CCCC1 (stereo not shown) on SSTR4 (Homo sapiens), anyone have it?
123

Lab note: need IC50 for "C[C@H](c1ccc(F)cc1)c1nc(C(=O)NC2CCOCC2)cnc1NCCN1CCCC1" on SSTR4 (Homo sapiens), anyone have it?
166

Lab note: need IC50 for COc1cccc(Cc2nc3cccc(C)c3nc2NCCN2CCC2)c1 (single isomer, unassigned) on SSTR4 (Homo sapiens), anyone have it?
38

Lab note: need IC50 for Cc1nc(NCCN2CCCC2)c(C(C)c2ccc(F)cc2)nc1C(=O)N(C)C(C)C (stereo not shown) on SSTR4 (Homo sapiens), anyone have it?
10

Lab note: need IC50 for Cc1nc(NCCN2CCCC2)c(C(C)c2ccc(F)cc2)nc1C(=O)NCCF (stereo not shown) on SSTR4 (Homo sapiens), anyone have it?
18.2

Lab note: need IC50 for "CNC(=O)c1nc(Cc2cccc(C)c2)c(NCCN2CCCC2)nc1C" on SSTR4 (Homo sapiens), anyone have it?
21.9

---
Lab note: need IC50 for Cc1cnc(-c2cnc(NCCN3CCCC3)c(C(C)c3ccc(F)cc3)n2)o1 (stereo not shown) on SSTR4 (Homo sapiens), anyone have it?
110

Lab note: need IC50 for Cc1nc(NCCN2CCCC2)c(C(C)c2ccc(F)cc2)nc1C(=O)N[C@H]1C[C@@H](F)C1 (stereo partly shown) on SSTR4 (Homo sapiens), anyone have it?
33.9
